Where do the numbers come from? From patent US20120270928A1.

Answer each item with its documented luciferase value normalized to beta-galactosidase activity.
- Test system: miR-21
- protocolSummary: miR-21 luciferase sensor assay in Hela cells
- Type: cell-based
- experimentalParameters: 500 nM oligonucleotide; Hela cells; two experimental replicates
- Protocol: The compounds were assessed for miR-21 inhibitory activity in a luciferase assay. A microRNA luciferase sensor construct was engineered using pGL3-MCS2 (Promega). The construct was introduced into Hela cells to test the ability of anti-miR compounds to inhibit activity of miR-21. […] Hela cells are passively lysed and luciferase activity measured using the Dual-Luciferase Reporter Assay System (Promega). […]
# respond with the number and nothing more

(Q) Quick one: luciferase value normalized to beta-galactosidase activity for TE^MeCAACSATCSAGTCSTGAUSAAGCSTAE (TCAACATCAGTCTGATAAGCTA; modified nucleosides with 5-methyl C, code letters not given here, further chemistry not given here) [Compound 25082] ?
(A) 202

(Q) Quick one: luciferase value normalized to beta-galactosidase activity for UECEAFAFCFAFUFCFAFGFUFCEUEGEAFUFAFAFGFCFUEAE (antisense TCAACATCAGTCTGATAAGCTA; listed as DNA, chemistry not fully specified) [Compound 25919, reference compound] ?
(A) 202

(Q) Quick one: luciferase value normalized to beta-galactosidase activity for Te^MeCASA^MeCAST^MeCAGST^MeCTGASTAAGS^MeCTAe (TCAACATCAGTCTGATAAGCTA; cEt, 5-methyl C and phosphorothioate modifications, code letters not given here, further chemistry not given here) [Compound 25067] ?
(A) 42

(Q) Quick one: luciferase value normalized to beta-galactosidase activity for Ae^MeCAST^MeCAGST^MeCTGASTASAGS^MeCTAe (ACATCAGTCTGATAAGCTA; listed as DNA, chemistry not fully specified) [Compound 25071] ?
(A) 42

###

- System: miR-21
- protocolSummary: miR-21 luciferase sensor assay in Hela cells
- Format: cell-based
- experimentalParameters: 20 nM oligonucleotide; Hela cells
Answer each item with its documented luciferase value normalized to beta-galactosidase activity.
# respond with the number and nothing more

(Q) Quick one: luciferase value normalized to beta-galactosidase activity for AECSATCSAGTCSTGAUSAAGCSTAE (ACATCAGTCTGATAAGCTA; modified nucleosides, phosphorothioate linkages, chemistry not fully specified) [Compound 25070] ?
(A) 128

(Q) Quick one: luciferase value normalized to beta-galactosidase activity for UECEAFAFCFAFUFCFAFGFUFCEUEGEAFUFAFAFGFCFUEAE (antisense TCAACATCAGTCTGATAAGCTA; listed as DNA, chemistry not fully specified) [Compound 25919, reference compound] ?
(A) 114

(Q) Quick one: luciferase value normalized to beta-galactosidase activity for Te^MeCASA^MeCAST^MeCAGST^MeCTGASTAAGS^MeCTAe (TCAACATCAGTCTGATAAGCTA; cEt, 5-methyl C and phosphorothioate modifications, code letters not given here, further chemistry not given here) [Compound 25067] ?
(A) 41

###

Answer each item with its documented fold change in luciferase value relative to the mock treatment.
- System: miR-21
- protocolSummary: miR-21 luciferase sensor assay in Hela cells
- Format: cell-based
- experimentalParameters: concentration of anti-miR compound 1.9 (unit not given)
Strand notation (5' to 3'): a small letter for the sugar, then the base; units joined by * are phosphorothioate-linked, units joined directly phosphodiester-linked; [ ] holds rarer units or linkages, { } end groups; capitals alone tell only the bases. e = 2'-O-(2-methoxyethyl) (MOE); k = constrained ethyl (cEt); [5mC] = 5-methylcytosine; d = 2'-deoxy (DNA)
State just the number; it will be interpreted in fold change.

(Q) Field: fold change in luciferase value relative to the mock treatment (miR-21). Entry: AE^MeCSAT^MeCSAGT^MeCSTGATSAAG^MeCSTAS (antisense eA*k[5mC]*dA*dT*k[5mC]*dA*dG*dT*k[5mC]*dT*dG*dA*kT*dA*dA*dG*k[5mC]*dT*kA; further chemistry not given here) [Compound 25924, variation of 25070: 3′-terminal cEt nucleoside and each cytosine is a 5-methyl cytosine]
(A) 1.37

(Q) Field: fold change in luciferase value relative to the mock treatment (miR-21). Entry: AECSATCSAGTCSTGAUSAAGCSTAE (ACATCAGTCTGATAAGCTA; modified nucleosides, phosphorothioate linkages, chemistry not fully specified) [Compound 25070]
(A) 1.14

(Q) Field: fold change in luciferase value relative to the mock treatment (miR-21). Entry: AECSATCSAGTCSTGAUSAAGCSTAS (antisense ACATCAGTCTGATAAGCTA; cEt and 2'-MOE nucleosides, code letters not given here, further chemistry not given here) [Compound 25923, variation of 25070: 3′-terminal nucleoside is a cEt nucleoside rather than 2′-MOE nucleoside]
(A) 1.10
